These data points were gathered from patent US20120095062A1.

- Test system: IL-6, Human A549 lung epithelial cells
- assayText: IL-6 inhibition in IL-1β-stimulated A549 cells
- Assay type: cell-based
- cond: A549, 20 h, A549 cells, 1 ng/mL IL-1β, 20 hours, read-out: IL-6 IC50
Where a name gives a salt, the structure may show the parent alone.
Form field: IC50 (one value per entry).

>  <compound>
C[C@]12C=CC(=O)C=C1CC[C@@H]1[C@@H]2[C@@H](O)C[C@@]2(C)[C@H]1CC[C@]2(O)C(=O)CO

>  <unitName>
nM

>  <censorSymbol>
=

>  <IC50>
4.2

$$$$
>  <compound>
Cc1ncccc1NC(=O)c1ccc2c(c1)CC[C@@H]1C[C@@](O)(CCC(F)(F)F)CC[C@@]21Cc1ccccc1

>  <unitName>
nM

>  <censorSymbol>
=

>  <IC50>
1.1

$$$$
>  <compound>
Cc1ncccc1NC(=O)c1ccc2c(c1)CC[C@@H]1C[C@@](O)(C(F)(F)F)CC[C@@]21Cc1ccccc1 [Example 1 HCL salt]

>  <unitName>
nM

>  <censorSymbol>
=

>  <IC50>
0.4

$$$$
>  <compound>
Cc1ncccc1NC(=O)c1ccc2c(c1)CC[C@@H]1C[C@@](OP(=O)(O)O)(C(F)(F)F)CC[C@@]21Cc1ccccc1

>  <unitName>
nM

>  <censorSymbol>
=

>  <IC50>
60

$$$$
>  <compound>
Cc1ncccc1CNC(=O)c1ccc2c(c1)CC[C@@H]1C[C@@](O)(CCC(F)(F)F)CC[C@@]21Cc1ccccc1

>  <unitName>
nM

>  <censorSymbol>
>

>  <IC50>
36.4

$$$$
>  <compound>
Cc1ncc(NC(=O)c2ccc3c(c2)CC[C@@H]2C[C@@](O)(CCC(F)(F)F)CC[C@@]32Cc2ccccc2)c(C)n1

>  <unitName>
nM

>  <censorSymbol>
=

>  <IC50>
291

$$$$

---

Form field: pIC50 (one value per entry).
- Test system: IL-6, Human A549 lung epithelial cells
- assayText: IL-6 inhibition in IL-1β-stimulated A549 cells
- Format: cell-based
- cond: A549, 20 h, A549 cells, 1 ng/mL IL-1β, 20 hours, read-out: IL-6 IC50
pIC50: −log10 of the molar value.

>  <smilesNotation>
Cc1c(NC(=O)c2ccc3c(c2)CC[C@@H]2C[C@@](O)(C(F)(F)F)CC[C@@]32Cc2ccccc2)ccc[n+]1[O-]

>  <pIC50>
8.68

$$$$
>  <smilesNotation>
Cc1ncccc1NC(=O)c1ccc2c(c1)CC[C@@H]1C[C@@](O)(C(F)F)CC[C@@]21Cc1ccccc1

>  <pIC50>
8.37

$$$$
>  <smilesNotation>
Cc1ccncc1NC(=O)c1ccc2c(c1)CC[C@@H]1C[C@@](O)(C(F)(F)F)CC[C@@]21Cc1ccccc1

>  <pIC50>
8.89

$$$$
>  <smilesNotation>
Cc1cnc(NC(=O)c2ccc3c(c2)CC[C@@H]2C[C@@](O)(C(F)(F)F)CC[C@@]32Cc2ccccc2)c(C)n1

>  <pIC50>
8.40

$$$$
>  <smilesNotation>
Cc1ncccc1NC(=O)c1ccc2c(c1)C(=O)C[C@@H]1C[C@@](O)(C(F)(F)F)CC[C@@]21Cc1ccccc1

>  <pIC50>
8.96

$$$$
>  <smilesNotation>
Cc1ncccc1NC(=O)c1ccc2c(c1)[C@H](O)C[C@@H]1C[C@@](O)(C(F)(F)F)CC[C@@]21Cc1ccccc1

>  <pIC50>
8.15

$$$$
>  <smilesNotation>
Cc1ncccc1NC(=O)c1ccc2c(c1)C=C[C@@H]1C[C@@](O)(C(F)(F)F)CC[C@@]21Cc1ccccc1

>  <pIC50>
8.55

$$$$
